target: CyclinE1/CDK2 (Homo sapiens, UniProt P24864); construct: purchased Eurofins, discovery 14-475; experiment: Fluorescence Polarization (FP) competitive binding assay, Cyclin E1/Cdk2; details: 10 nM Cyclin E1/Cdk2, 2 nM FAM probe; average of 2-3 independent experiments; read-out: Cyclin E FP IC50;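 note: readings taken after two-hour equilibration at room temperature in HEPES buffer with NaCl, DTT, NP-40 and BSA, IC50 fitted from eight-concentration serial dilution series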
*1 amine or outer side, *2 acyl side, *3 side chain or, on linkers, in order; H or OH if unused. Where a SMILES comes first, the peptide text is derived from it. Bridges are numbered along the chain shown (N, C = ends). [ ]: non-standard residue; d: D form. The star is where a group is joined. X124 = CC(C)C(=O)N1[C@@H]2CC[C@H]1C=C(c1ccc(F)cc1C[C@@H](C(=O)[*:2])N(C)[*:1])C2; X31 = CN1CCC(c2ccc(-c3ccc(Cl)cc3C[C@@H](C(=O)[*:2])N(C)[*:1])cc2)CC1; NMehhhLys(Me) = CN([C@@H](CCCCCCCN(C)[*:3])C(=O)[*:2])[*:1]; X104 = CN([C@@H](Cc1cc(Cl)ccc1C1=CCOCC1)C(=O)[*:2])[*:1]; NMe(hhhLys) = CN([C@@H](CCCCCCCN[*:3])C(=O)[*:2])[*:1]; cBuCO(3,3-F2-1-CF3) = O=C(C1(C(F)(F)F)CC(F)(F)C1)*; Pro(trans-4-F) = O=C(O)[C@@H]1C[C@@H](F)CN1; Gly(cPr) = N[C@H](C(=O)O)C1CC1
Here the recorded IC50 is given for each entry.
propertyMeasured: IC50 (nM)

{"compound": "CC(C)C[C@@H]1NC(=O)[C@@H](N(C)C(=O)[C@@H](NC(=O)[C@@H]2C[C@@H](F)CN2C(=O)C2(C(F)(F)F)CC(F)(F)C2)C2CC2)CCCCCCCNC(=O)[C@H](Cc2cc(Cl)ccc2C2=CCOCC2)N(C)C1=O [Example 21] ({cBuCO(3,3-F2-1-CF3)}-[Pro(trans-4-F)][Gly(cPr)][NMe(hhhLys)]L[X104]; lactam 3-C)", "measuredTarget": "CyclinE1/CDK2 (Homo sapiens, UniProt P24864)", "propertyMeasured": "IC50", "dataValue": 1130}
{"compound": "CC(C)C[C@@H]1NC(=O)[C@@H](N(C)C(=O)[C@@H](NC(=O)[C@@H]2C[C@@H](F)CN2C(=O)C2(C(F)(F)F)CC(F)(F)C2)C2CC2)CCCCCCCN(C)C(=O)[C@H](Cc2cc(Cl)ccc2-c2ccc(C3CCN(C)CC3)cc2)N(C)C1=O [Example 358] ({cBuCO(3,3-F2-1-CF3)}-[Pro(trans-4-F)][Gly(cPr)][NMehhhLys(Me)]L[X31]; lactam 3-C)", "measuredTarget": "CyclinE1/CDK2 (Homo sapiens, UniProt P24864)", "propertyMeasured": "IC50", "dataValue": 550}
{"compound": "CC(C)C[C@@H]1NC(=O)[C@@H](N(C)C(=O)[C@@H](NC(=O)[C@@H]2C[C@@H](F)CN2C(=O)C2(C(F)(F)F)CC(F)(F)C2)C2CC2)CCCCCCCNC(=O)[C@H](Cc2cc(F)ccc2C2=C[C@@H]3CC[C@H](C2)N3C(=O)C(C)C)N(C)C1=O [Example 315] ({cBuCO(3,3-F2-1-CF3)}-[Pro(trans-4-F)][Gly(cPr)][NMe(hhhLys)]L[X124]; lactam 3-C)", "measuredTarget": "CyclinE1/CDK2 (Homo sapiens, UniProt P24864)", "propertyMeasured": "IC50", "dataValue": 420}

---

molecular target: CyclinA2/CDK2 (Homo sapiens, UniProt P20248); construct: purchased CRELUX Protein Services; assay: Fluorescence Polarization (FP) competitive binding assay, Cyclin A2/Cdk2; conditions: 8 nM Cyclin A2/Cdk2, 2 nM FAM probe; average of 2-3 independent experiments; read-out: Cyclin A FP IC50
*1 amine or outer side, *2 acyl side, *3 side chain or, on linkers, in order; H or OH if unused. Where a SMILES comes first, the peptide text is derived from it. Bridges are numbered along the chain shown (N, C = ends). [ ]: non-standard residue; d: D form. The star is where a group is joined. X73 = CN([C@@H](Cc1cc(Cl)ccc1-c1ccc(N2CCN(Cc3cnn(C)c3)CC2)cc1)C(=O)[*:2])[*:1]; X72 = CN([C@@H](Cc1cc(Cl)ccc1-c1cnn(C2CCS(=O)(=O)C2)c1)C(=O)[*:2])[*:1]; NMehhhLys(Me) = CN([C@@H](CCCCCCCN(C)[*:3])C(=O)[*:2])[*:1]; cBuCO(3,3-F2-1-CF3) = O=C(C1(C(F)(F)F)CC(F)(F)C1)*; Pro(trans-4-F) = O=C(O)[C@@H]1C[C@@H](F)CN1; Gly(cPr) = N[C@H](C(=O)O)C1CC1

{"compound": "CC(C)C[C@@H]1NC(=O)[C@@H](N(C)C(=O)[C@@H](NC(=O)[C@@H]2C[C@@H](F)CN2C(=O)C2(C(F)(F)F)CC(F)(F)C2)C2CC2)CCCCCCCN(C)C(=O)[C@H](Cc2cc(Cl)ccc2-c2ccc(N3CCN(Cc4cnn(C)c4)CC3)cc2)N(C)C1=O [Example 372] ({cBuCO(3,3-F2-1-CF3)}-[Pro(trans-4-F)][Gly(cPr)][NMehhhLys(Me)]L[X73]; lactam 3-C)", "IC50": "20 nM"}
{"compound": "CC(C)C[C@@H]1NC(=O)[C@@H](N(C)C(=O)[C@@H](NC(=O)[C@@H]2C[C@@H](F)CN2C(=O)C2(C(F)(F)F)CC(F)(F)C2)C2CC2)CCCCCCCN(C)C(=O)[C@H](Cc2cc(Cl)ccc2-c2cnn(C3CCS(=O)(=O)C3)c2)N(C)C1=O (stereo partly drawn) [Example 253] ({cBuCO(3,3-F2-1-CF3)}-[Pro(trans-4-F)][Gly(cPr)][NMehhhLys(Me)]L[X72]; lactam 3-C)", "IC50": "20 nM"}
{"compound": "CC(C)C[C@@H]1NC(=O)[C@@H](NC(=O)[C@@H](NC(=O)[C@@H]2C[C@@H](F)CN2C(=O)C2(C(F)(F)F)CC2)C2CC2)CC=CCCCCN(C)C(=O)[C@H](Cc2cc(Cl)ccc2Cl)N(C)C1=O", "IC50": "170 nM"}

---

biological target: CyclinA2/CDK2 (Homo sapiens, UniProt P20248); construct: purchased CRELUX Protein Services; experiment: Fluorescence Polarization (FP) competitive binding assay, Cyclin A2/Cdk2; conditions: 8 nM Cyclin A2/Cdk2, 2 nM FAM probe; average of 2-3 independent experiments; read-out: Cyclin A FP IC50;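 note: plates equilibrated two hours at room temperature before polarization reading, IC50 fitted from eight-concentration compound titration curves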
*1 amine or outer side, *2 acyl side, *3 side chain or, on linkers, in order; H or OH if unused. Where a SMILES comes first, the peptide text is derived from it. Bridges are numbered along the chain shown (N, C = ends). [ ]: non-standard residue; d: D form. The star is where a group is joined. X167 = CN([C@@H](Cc1cc(F)ccc1C1=CCN(S(C)(=O)=O)CC1)C(=O)[*:2])[*:1]; NMehhhLys(Me) = CN([C@@H](CCCCCCCN(C)[*:3])C(=O)[*:2])[*:1]; X156 = CN([C@@H](Cc1cc(Cl)cc2ccccc12)C(=O)[*:2])[*:1]; cBuCO(3,3-F2-1-CF3) = O=C(C1(C(F)(F)F)CC(F)(F)C1)*; Pro(trans-4-F) = O=C(O)[C@@H]1C[C@@H](F)CN1; Gly(cPr) = N[C@H](C(=O)O)C1CC1
Examples of compounds with documented IC50 follow.
propertyMeasured: IC50 (nM)

{"compound": "CC(C)C[C@@H]1NC(=O)[C@@H](N(C)C(=O)[C@@H](NC(=O)[C@@H]2C[C@@H](F)CN2C(=O)C2(C(F)(F)F)CC(F)(F)C2)C2CC2)CCCCCCCN(C)C(=O)[C@H](Cc2cc(Cl)cc3ccccc23)N(C)C1=O [Example 425] ({cBuCO(3,3-F2-1-CF3)}-[Pro(trans-4-F)][Gly(cPr)][NMehhhLys(Me)]L[X156]; lactam 3-C)", "measuredTarget": "CyclinA2/CDK2 (Homo sapiens, UniProt P20248)", "dataValue": 150}
{"compound": "CC(=O)N1C2CCC1CC(c1ccc(F)cc1C[C@H]1C(=O)N(C)CCCCCCC[C@H](N(C)C(=O)[C@@H](NC(=O)[C@@H]3C[C@@H](F)CN3C(=O)C3(C(F)(F)F)CC(F)(F)C3)C3CC3)C(=O)N[C@@H](CC(C)C)C(=O)N1C)C2 (single isomer, unassigned) [Example 59-P1]", "measuredTarget": "CyclinA2/CDK2 (Homo sapiens, UniProt P20248)", "dataValue": 120}
{"compound": "CC(C)C[C@@H]1NC(=O)[C@@H](N(C)C(=O)[C@@H](NC(=O)[C@@H]2C[C@@H](F)CN2C(=O)C2(C(F)(F)F)CC(F)(F)C2)C2CC2)CCCCCCCN(C)C(=O)[C@H](Cc2cc(F)ccc2C2=CCN(S(C)(=O)=O)CC2)N(C)C1=O [Example 100] ({cBuCO(3,3-F2-1-CF3)}-[Pro(trans-4-F)][Gly(cPr)][NMehhhLys(Me)]L[X167]; lactam 3-C)", "measuredTarget": "CyclinA2/CDK2 (Homo sapiens, UniProt P20248)", "dataValue": 20}

The reported measurements were obtained from patent US20240408169A1.
